Experiment: Quantitative High-Throughput drug screen in 47 multiple myeloma cell lines against the NCATS MIPE library collection: Karpas25_ECACC cell viability assay (AID 1918968; also: nearly all actives have a fitted effect of over 35% in size)
Settings: Karpas25 myeloma viability, CellTiter-Glo ATP, 48 h; series mostly up to 45.8 µM
Inconclusive results are not listed. Calls of active or inactive are those of the source. Calls follow the shape of the dose curve; as a rule, active = well fitted cell-killing curve with a large enough effect; inconclusive = small, poorly fitted or top-dose-only effect, or effect the other way; inactive = no such curve, though single readings can be large or run the other way.
Pick from active, inactive when you respond.

Input line: Give the logged outcome of this assay for the following molecule: COc1ccc(C2CC(c3ccccc3)=NN2c2ccc(S(N)(=O)=O)cc2)cc1 (centres undefined)
Output line: active

Input line: Give the logged outcome of this assay for the following molecule: NC[C@@H]1O[C@@H](O[C@H]2[C@@H](O)[C@H](O[C@@H]3[C@@H](O)[C@@H](N)C[C@H](N)[C@H]3O[C@H]3O[C@H](CN)[C@@H](O)[C@@H](O)[C@H]3N)O[C@H]2CO)[C@H](N)[C@@H](O)[C@@H]1O
Output line: inactive

Input line: Give the logged outcome of this assay for the following molecule: O=C1C(Cl)=C(NCCN2CCOCC2)C(=O)c2ncccc21
Output line: active

Input line: Give the logged outcome of this assay for the following molecule: CN(C[C@@H]1COCCO1)S(=O)(=O)Nc1ccc2ccc3ncc(-c4cnn(C)c4)cc3c(=O)c2c1
Output line: active

Input line: Give the logged outcome of this assay for the following molecule: O=c1c(-c2ccc(O)cc2)coc2cc(O)ccc12
Output line: inactive

Input line: Give the logged outcome of this assay for the following molecule: O=C1Nc2ccc(Cl)cc2C(C#CC2CC2)(C(F)(F)F)O1 (centres undefined)
Output line: active

Input line: Give the logged outcome of this assay for the following molecule: O=c1cc(-c2ccccc2)oc2cc(O)c(O)c(O)c12
Output line: active

Input line: Give the logged outcome of this assay for the following molecule: NC(=O)c1ccc2nc(-c3ccc(Oc4ccc(Cl)cc4)cc3)[nH]c2c1
Output line: active

Input line: Give the logged outcome of this assay for the following molecule: C[C@H](NC(=O)c1sccc1OCc1ccc(Cl)cc1)c1ccccc1
Output line: active

----------
Experiment: Primary qHTS for inhibitors of nuclear receptor binding SET domain protein 2 (NSD2) in an RCH-ACV wild type WT cells (2C) (AID 1645877); also: nearly all actives have a fitted effect of over 70% in size
Settings: RCH-ACV (leukaemia line) NSD2 WT (2C) viability, CellTiter-Glo, 72 h; series mostly up to 44.9 µM
Results filed as inconclusive are left out. Active and inactive are the calls of the source. Calls follow the shape of the dose curve; as a rule, active = well fitted inhibition curve with a large enough effect; inconclusive = small, poorly fitted or top-dose-only effect; inactive = no such curve, though single readings can be large or run the other way.
Pick from y = active, n = inactive when you respond.

Input line: Give the logged outcome of this assay for the following molecule: Nc1ncnc2ccccc12
Output line: n

Input line: Give the logged outcome of this assay for the following molecule: CC(C)(C)c1cc(C(=O)O)c(NC(=O)Nc2ccc3[nH]ncc3c2)s1
Output line: n

Input line: Give the logged outcome of this assay for the following molecule: COc1cc2c(cc1OC)CN(CCc1ccc(NC(=O)c3cc(OC)c(OC)cc3NC(=O)c3cnc4ccccc4c3)cc1)CC2
Output line: n

Input line: Give the logged outcome of this assay for the following molecule: CCCCC1C(=O)N(c2ccccc2)N(c2ccccc2)C1=O
Output line: n

Input line: Give the logged outcome of this assay for the following molecule: O=C(NCCN1CCOCC1)c1ccc(Cl)cc1
Output line: n

Input line: Give the logged outcome of this assay for the following molecule: OC[C@@H](O)[C@H](O)[C@H](O)[C@@H](O)CO
Output line: n

Input line: Give the logged outcome of this assay for the following molecule: NS(=O)(=O)c1cccc2c1C(=O)c1cccc(O)c1C2=O
Output line: y

Input line: Give the logged outcome of this assay for the following molecule: Cc1ccc(C(=O)Nc2cccc(C(F)(F)F)c2)cc1Nc1nc(-c2cccnc2)nc2c1cnn2C
Output line: n

Input line: Give the logged outcome of this assay for the following molecule: c1cc(-c2sc(-c3ccncc3)c(-c3ccncc3)c2-c2ccncc2)ccn1
Output line: n

Input line: Give the logged outcome of this assay for the following molecule: O=c1cc(-c2ccc(O)cc2)oc2cc(O)cc(O)c12
Output line: y

Input line: Give the logged outcome of this assay for the following molecule: CC(=O)c1ccc(S(=O)(=O)NC(=O)NC2CCCCC2)cc1
Output line: n

Input line: Give the logged outcome of this assay for the following molecule: CC(=O)Oc1cc2c(s1)CCN(C(C(=O)C1CC1)c1ccccc1F)C2 (configuration not stated)
Output line: n

Input line: Give the logged outcome of this assay for the following molecule: NC(=O)[C@@H](CCC(F)(F)F)N(Cc1ccc(-c2ncon2)cc1F)S(=O)(=O)c1ccc(Cl)cc1
Output line: y

Input line: Give the logged outcome of this assay for the following molecule: CN(C)Cc1ccc(-c2nc3cccc4c3n2CCNC4=O)cc1
Output line: y

Input line: Give the logged outcome of this assay for the following molecule: O=C(O)c1ccccc1C(=O)Nc1ccc(-c2ccccc2)cc1
Output line: n

Input line: Give the logged outcome of this assay for the following molecule: CCN(CC)CCOC(=O)c1ccc(N)cc1
Output line: n

Input line: Give the logged outcome of this assay for the following molecule: CCCNC(=O)NS(=O)(=O)c1ccc(Cl)cc1
Output line: n

Input line: Give the logged outcome of this assay for the following molecule: O=C(O)c1c(Cl)c(Cl)c(Cl)c(Cl)c1-c1c2cc(I)c(=O)c(I)c-2oc2c(I)c(O)c(I)cc12
Output line: y

Input line: Give the logged outcome of this assay for the following molecule: Clc1ccc(C(c2ccc(Cl)cc2)n2cc[n+](CC(OCc3ccc(Cl)cc3Cl)c3ccc(Cl)cc3Cl)c2)cc1 (configuration not stated)
Output line: y

Input line: Give the logged outcome of this assay for the following molecule: O=C(Nc1cc(Cl)cc2c1[nH]c1cnccc12)c1cccnc1
Output line: n

Input line: Give the logged outcome of this assay for the following molecule: O=C(N[C@@H](c1ccccc1)[C@@H]1CCCCN1)c1cccc(C(F)(F)F)c1Cl
Output line: y

Input line: Give the logged outcome of this assay for the following molecule: CN(C)CCC(c1ccccc1)c1ccccn1 (configuration not stated)
Output line: n
